Overview of reported GI50 across a group of compounds:
test system: OVCAR-3; test: NCI tumour cell line growth inhibition, 48 h
Active and inactive are the calls of the source. Rule as the data show it: active = GI50 up to about 1.1 µM and inactive = higher.

Compound: CC(=O)OCC1C(C(C)OC(C)=O)CCC2C1CCC1(C)C(OC(C)=O)CCC21 (centres undefined)
Assayed Target: OVCAR-3
GI50: 20.5 µM (inactive)
//
Compound: Cc1nc(NC(=S)NC(=O)c2ccc(Cl)c(Cl)c2)sc1C(=O)/C=C/c1ccccc1[N+](=O)[O-]
Assayed Target: OVCAR-3
GI50: 22.1 µM (inactive)
//
Compound: O=C1CC(NC(=O)C(F)(F)F)c2c(Br)sc(N3CCNCC3)c21 (centres undefined)
Assayed Target: OVCAR-3
GI50: > 100 µM (inactive)
//
Compound: COc1cccc(Nc2nc(NNC(=O)Cc3ccccc3)nc(NNC(=O)c3ccncc3)n2)c1
Assayed Target: OVCAR-3
GI50: > 100 µM (inactive)
//
Compound: Cc1c(CC/C(=N\Nc2ccc([N+](=O)[O-])cc2[N+](=O)[O-])c2ccccc2)c2ccccc2n1C
Assayed Target: OVCAR-3
GI50: > 100 µM (inactive)
//
Compound: COc1cc(/C=C/C(=O)OC[C@]23O[C@H]2[C@@H](OC2OC(C)C(O)C(O)C2O)C2C=CO[C@@H](OC4OC(CO)C(O)C(O)C4O)C23)ccc1O (some centres undefined)
Assayed Target: OVCAR-3
GI50: > 100 µM (inactive)
//
Compound: Cc1cc(Cc2c(F)c(F)c(Cc3cc(C)no3)c(F)c2F)on1
Assayed Target: OVCAR-3
GI50: > 100 µM (inactive)
//
Compound: COc1nc2c(c(=O)n1C)N=C(c1ccccc1)[C@H](C(CC(=O)c1ccccc1)c1ccccc1)C(c1ccccc1)N2 (some centres undefined)
Assayed Target: OVCAR-3
GI50: > 100 µM (inactive)
//
Compound: Cc1cc(Br)ccc1NC1=CC(=O)C(=O)c2ccccc21
Assayed Target: OVCAR-3
GI50: 35 µM (inactive)

====

tested on: SK-OV-3; experiment: NCI tumour cell line growth inhibition, 48 h
Active and inactive are the calls of the source. Rule as the data show it: active = GI50 up to about 1.1 µM and inactive = higher. Where a SMILES comes first, the peptide text is derived from it. [ ]: non-standard residue; d: D form. The star is where a group is joined. Cbz = O=C(OCc1ccccc1)*; Aib = CC(C)(N)C(=O)O
Endpoint Name: GI50

Molecule: Cc1ccc2c(c1)[nH]c(=S)n2C=C(C(N)=O)C(N)=O
Assayed Target: SK-OV-3
Recorded Value: > 100 µM (inactive)

Molecule: CCN(CC)CCOCCOCC1(c2ccc(Cl)c(Cl)c2)CCCCC1
Assayed Target: SK-OV-3
Recorded Value: 11.6 µM (inactive)

Molecule: CC(C)(C)n1c(=O)[nH]c(=O)n1C(C)(C)C
Assayed Target: SK-OV-3
Recorded Value: > 100 µM (inactive)

Molecule: COc1cc2noc(-c3ccccc3)c2cc1OC
Assayed Target: SK-OV-3
Recorded Value: 63 µM (inactive)

Molecule: O=C(c1ccccc1Br)C(F)(F)F
Assayed Target: SK-OV-3
Recorded Value: > 100 µM (inactive)

Molecule: O=C(Nc1ccc(Cl)cc1)NS(=O)(=O)c1coc2ccccc2c1=O
Assayed Target: SK-OV-3
Recorded Value: > 10 µM (inactive)

Molecule: COc1ccc(N2C(=O)C3c4[nH]c5ccc(C)cc5c4C4CCC(c5ccccc5)CC4C3C2=O)cc1 (stereo not drawn)
Assayed Target: SK-OV-3
Recorded Value: 18.9 µM (inactive)

Molecule: Cc1cc(-c2ccccc2)nc2oc(=O)n(C)c12
Assayed Target: SK-OV-3
Recorded Value: > 100 µM (inactive)

Molecule: c1ccc(C(NC2=NCCO2)c2ccccc2)cc1
Assayed Target: SK-OV-3
Recorded Value: > 10 µM (inactive)

Molecule: Cc1noc(NS(=O)(=O)c2ccc(NC(=O)c3ccc4[nH]c5ccccc5c(=O)c4c3)cc2)c1C
Assayed Target: SK-OV-3
Recorded Value: 61.9 µM (inactive)

Molecule: C(/C=N/N=C1NCCN1)=N\N=C1NCCN1
Assayed Target: SK-OV-3
Recorded Value: > 100 µM (inactive)

Molecule: Cc1nc(NC(=S)NC(=O)c2ccc(Cl)c(Cl)c2)sc1C(=O)/C=C/c1ccccc1[N+](=O)[O-]
Assayed Target: SK-OV-3
Recorded Value: 15.6 µM (inactive)

Molecule: COc1cc(O)c(C(=O)/C=C/c2ccc(O)cc2)cc1Oc1ccc(/C=C/C(=O)c2ccc(O)cc2O)cc1
Assayed Target: SK-OV-3
Recorded Value: 8.36 µM (inactive)

Molecule: CNC(=O)N(CCC#N)[C@H]1CCCC[C@@H]1N(C(=O)NC)c1ccccc1
Assayed Target: SK-OV-3
Recorded Value: > 100 µM (inactive)

Molecule: NC(=S)N1N=C(c2ccccc2O)CC1c1ccccc1 (stereo not drawn)
Assayed Target: SK-OV-3
Recorded Value: 13.9 µM (inactive)

Molecule: COc1cc2c(cc1OC)C13CCN4C=C5CCOC6CC(=O)N2C1C6C5CC43 (stereo not drawn)
Assayed Target: SK-OV-3
Recorded Value: > 100 µM (inactive)

Molecule: O=c1oc2ccc3ccccc3c2cc1-c1cn2ccsc2n1
Assayed Target: SK-OV-3
Recorded Value: > 100 µM (inactive)

Molecule: Oc1ccc2ccccc2c1/N=N\c1cccc2ccccc12
Assayed Target: SK-OV-3
Recorded Value: > 100 µM (inactive)

Molecule: CC(C)(NC(=O)C(C)(C)NC(=O)OCc1ccccc1)C(=O)O (Cbz-[Aib]-[Aib]-OH)
Assayed Target: SK-OV-3
Recorded Value: > 100 µM (inactive)

Molecule: O=c1[nH]c(=O)n(C2CC(O)C(CO)O2)cc1OCC1CCCCC1 (stereo not drawn)
Assayed Target: SK-OV-3
Recorded Value: > 100 µM (inactive)

Molecule: O=c1[nH]nc(Cc2ccc(Cl)cc2)n1CCO
Assayed Target: SK-OV-3
Recorded Value: > 100 µM (inactive)

Molecule: COc1ccc(C(Cc2cc(OC)c(OC)c(OC)c2)C(=O)O)cc1 (stereo not drawn)
Assayed Target: SK-OV-3
Recorded Value: 52.6 µM (inactive)

Molecule: O=C(OCC(Cl)(Cl)Cl)N1CC[C@H](C2CCCCC2)C1
Assayed Target: SK-OV-3
Recorded Value: 15.6 µM (inactive)

====

system: SNB-19; test: NCI tumour cell line growth inhibition, 48 h
Calls of active or inactive are those of the source. No stated cut-off is given here; in the data, active = GI50 up to about 1.1 µM and inactive = higher.
Overview of reported GI50 across a group of compounds:
Endpoint Name: GI50

Compound: Nc1nc(-c2ccccc2)cc(-c2ccc(OCc3ccccc3)cc2O)n1
Recorded Value: 50.2 µM (inactive)

Compound: O=C(N1CCOCC1)C1(c2ccccc2)CCNCC1
Recorded Value: > 100 µM (inactive)

Compound: O=S(=O)(N1CCCCN(S(=O)(=O)C(F)(F)F)CCCN(S(=O)(=O)C(F)(F)F)CCCN(S(=O)(=O)C(F)(F)F)CCCCN(S(=O)(=O)C(F)(F)F)CCCN(S(=O)(=O)C(F)(F)F)CCC1)C(F)(F)F
Recorded Value: 35.2 µM (inactive)

Compound: O=C1c2ccccc2N2OC3(N4CCCC4)CCCCC3C12c1ccccc1 (configuration not stated)
Recorded Value: > 100 µM (inactive)

Compound: CCCCCCCCC[C@@H]1C[C@@H]2CCC3C(C(=O)OCCCCNC(=O)OCc4ccccc4)=C(C)N=C(N1)N32 (some centres not stated)
Recorded Value: 6.18 µM (inactive)

Compound: CCOC(=O)NC(NNc1ccc([N+](=O)[O-])cc1[N+](=O)[O-])(C(F)(F)F)C(F)(F)F
Recorded Value: 35.2 µM (inactive)

Compound: CCOS(=O)(=O)c1ccc(-c2c3nc(c(-c4ccc(S(=O)(=O)OCC)cc4)c4ccc([nH]4)c(-c4ccc(S(=O)(=O)OCC)cc4)c4nc(c(-c5ccc(S(=O)(=O)OCC)cc5)c5ccc2[nH]5)C=C4)C=C3)cc1
Recorded Value: > 31.6 µM (inactive)

====

system: K562; assay: NCI tumour cell line growth inhibition, 48 h
The source made the active and inactive calls. Rule as the data show it: active = GI50 up to about 1.1 µM and inactive = higher.
Outcomes: active, inactive

Compound: CCOC(=O)C(=O)Nc1nc2ccc(C)cc2s1
Assayed Target: K562
Class: inactive
--
Compound: CC1=C(C(=O)NCCCN(CCO)CCO)CC(C(=O)NCCCN(CCO)CCO)=C(C)N1
Assayed Target: K562
Class: inactive
--
Compound: O=C1CC(NC(=O)C(F)(F)F)c2c(Br)sc(N3CCNCC3)c21 (stereo not given)
Assayed Target: K562
Class: inactive
--
Compound: CC12OC1(C)C1C(=O)OCC1C2=O (stereo not given)
Assayed Target: K562
Class: inactive
--
Compound: CCC(/C=C/C1OC(=O)C=CC1C)=C\C(C)C/C=C/C(C)=C/C(C)C(=O)C(C)C(O)C(C)C/C(C)=C/C(=O)O (stereo not given)
Assayed Target: K562
Class: active

====

tested on: MOLT-4; assay: NCI tumour cell line growth inhibition, 48 h
Active and inactive are the calls of the source. No stated cut-off is given here; in the data, active = GI50 up to about 1.1 µM and inactive = higher.

Molecule: CC(=O)Nc1ccc(C2[C@H]3C(=O)N(c4ccc(Cc5ccc(N6C(=O)[C@@H]7ON(c8ccccc8)C(c8ccc(NC(C)=O)cc8)[C@@H]7C6=O)cc5)cc4)C(=O)[C@H]3ON2c2ccccc2)cc1 (some centres undefined)
GI50: > 100 µM (inactive)
--
Molecule: CC(C)(C)[Si](C)(C)OCC1OC(n2ccc(N)nc2=O)C(O[Si](C)(C)C(C)(C)C)C1O[Si](C)(C)C(C)(C)C (centres undefined)
GI50: 1.47 µM (inactive)
--
Molecule: CN1C(=O)c2cccc3cc([N+](=O)[O-])cc(c23)C1=O
GI50: 5.04 µM (inactive)
--
Molecule: c1ccc(NN/N=N/c2ccc(-c3nc4ccccc4[nH]3)cc2)cc1
GI50: 14.5 µM (inactive)
--
Molecule: NC(=O)[C@H](Cc1ccc(O)cc1)NC1=C(Cl)C(=O)c2c(O)ccc(O)c2C1=O
GI50: 0.55 µM (active)
--
Molecule: O=c1oc2ccc3ccccc3c2cc1-c1cn2ccsc2n1
GI50: 3.41 µM (inactive)
--
Molecule: CCOC(=O)NC(NNc1ccc([N+](=O)[O-])cc1[N+](=O)[O-])(C(F)(F)F)C(F)(F)F
GI50: 28.1 µM (inactive)
--
Molecule: Cc1[nH]c2c(C)cccc2c1C1Cc2ccccc2N1 (centres undefined)
GI50: 20.5 µM (inactive)
--
Molecule: COc1ccccc1NC(=O)C(CC(C(=O)Nc1ccccc1OC)/C(C)=N/NC(=O)c1ccccc1O)/C(C)=N/NC(=O)c1ccccc1O (centres undefined)
GI50: 47.5 µM (inactive)
--
Molecule: C=CCNC(=O)/C(Cc1cc(Br)c(OC)c(Br)c1O)=N\O
GI50: 4.76 µM (inactive)
--
Molecule: CCCCCC/C=C\CCCCCCCCCc1cccc(OC)c1O
GI50: > 100 µM (inactive)
--
Molecule: COc1cc2c(cc1OC)C(=O)N(c1ccc(O)cc1)C2
GI50: > 100 µM (inactive)
--
Molecule: CC(=O)N/N=C1/CC[C@@]2(C)C(=CC[C@H]3C4CCC(C(C)CCCC(C)C)[C@@]4(C)CCC32)C1(C)C (some centres undefined)
GI50: 11 µM (inactive)
--
Molecule: C[C@H](CS)C(=O)N1c2ccccc2C[C@H]1C(=O)O
GI50: > 100 µM (inactive)
--
Molecule: Cc1nc(NC(=S)NC(=O)c2ccc(Cl)c(Cl)c2)sc1C(=O)/C=C/c1ccccc1[N+](=O)[O-]
GI50: 19.8 µM (inactive)
--
Molecule: O=[N+]([O-])/C(C(Cl)=C(Cl)Cl)=C1\NCCO1
GI50: 69.5 µM (inactive)
--
Molecule: N#CC(C(=N/NC(N)=S)/C(=N\NC(N)=S)C(C#N)c1ccccc1)c1ccccc1 (centres undefined)
GI50: > 10 µM (inactive)
--
Molecule: C1=NN(Cc2ccccc2)C(N(Cc2ccccc2)Cc2ccccc2)N1 (centres undefined)
GI50: 15.2 µM (inactive)
--
Molecule: CCOC(=O)c1cc2cc(N(C(C)=O)C(C)=O)ccc2s1
GI50: 18.6 µM (inactive)

Measured values drawn from ChEMBL document CHEMBL1201862 for this set.
